FYI, the data here is from the supplement of paper PMC12494721.

# Tested on: Ruminococcus gnavus DSM 108212
# methodSummary: fold change of 2-Phenylethylamine concentration vs plate DMSO controls (fold change (ratio)); higher = more amine produced, active = hit call of the paper (significant change in both replicates, either direction)
# recordedConditions: incubation time: 27 h, anaerobic, 37 °C
Where a name gives a salt, the structure may show the parent alone.
propertyLabel: fold change of 2-Phenylethylamine concentration

| molecule | measuredValue |
| --- | --- |
| O=C1c2c(O)ccc(O)c2C(=O)c2c(NCCNCCO)ccc(NCCNCCO)c21 [Mitoxantrone dihydrochloride] (20 µM) | 0.958 |
| Cc1ccc(C(=O)c2cc(O)c(O)c([N+](=O)[O-])c2)cc1 [Tolcapone] (20 µM) | 0.971 |
| Cc1ccnc2c1NC(=O)c1cccnc1N2C1CC1 [Nevirapine] (20 µM) | 1.12 |
| CN[C@@H]1CCc2[nH]c3ccc(C(N)=O)cc3c2C1 [Frovatriptan succinate] (20 µM) | 0.945 |
| Cc1ccc2c([nH]c(=O)c3c(=O)cc(C(=O)OCCC(C)C)oc32)c1C [Repirinast] (20 µM) | 0.964 |
| CC(C(=O)O)c1ccc(N2CC=CC2)c(Cl)c1 (stereo unspecified) [Pirprofen] (20 µM) | 1.15 |
| Cc1ccc(/C(=C\CN2CCCC2)c2ccccn2)cc1 [Triprolidine hydrochloride] (20 µM) | 0.986 |
| CC(=O)Nc1nnc(S(N)(=O)=O)s1 [Acetazolamide] (20 µM) | 1.09 |
| Clc1ccc(CSC(Cn2ccnc2)c2ccc(Cl)cc2Cl)cc1 (stereo unspecified) [Sulconazole nitrate] (20 µM) | 0.667 |
| O=C(Cn1cnnn1)N[C@@H]1C(=O)N2C(C(=O)O)=C(CSc3nncs3)CS[C@H]12 [Ceftezole] (20 µM) | 0.105 |
| C[n+]1ccccc1/C=N/O [Pralidoxime chloride] (20 µM) | 1.01 |
| O=C(O)c1cn(-c2ccc(F)cc2)c2cc(N3CCNCC3)c(F)cc2c1=O [Sarafloxacin] (20 µM) | 0.894 |
| O=C(O)CCNC(=O)c1ccc(/N=N/c2ccc(O)c(C(=O)O)c2)cc1 [Balsalazide disodium salt] (20 µM) | 1.51 |
| Nc1nc(N)c2nc(-c3ccccc3)c(N)nc2n1 [Triamterene] (20 µM) | 0.907 |
| CC1(C)O[C@@H]2C[C@H]3[C@@H]4C[C@H](F)C5=CC(=O)C=C[C@]5(C)[C@@]4(F)[C@@H](O)C[C@]3(C)[C@]2(C(=O)CO)O1 [Fluocinolone acetonide] (20 µM) | 0.976 |
| C[C@H]1C[C@H]2[C@@H]3CCC4=CC(=O)C=C[C@]4(C)[C@@]3(F)[C@@H](O)C[C@]2(C)[C@@]1(O)C(=O)CO [Betamethasone] (20 µM) | 0.968 |

* * *

# Test system: Clostridium sporogenes DSM 1664
# methodSummary: growth (OD595) fold change vs plate DMSO controls (fold change (ratio)); higher = more growth
# recordedConditions: incubation time: 27 h, anaerobic, 37 °C
Counter-ions that a name gives are not always drawn.
propertyLabel: growth

| compound | measuredValue |
| --- | --- |
| Brc1c(NC2=NCCN2)ccc2nccnc12 [Brimonidine L-tartrate] (20 µM) | 0.988 |
| C[C@]12CCC(=O)C=C1C=C[C@@H]1[C@@H]2CC[C@@]2(C)[C@H]1CC[C@@]21CCC(=O)O1 [Canrenone] (20 µM) | 1.01 |
| OC(CCCN1CCCCC1)(c1ccccc1)c1ccccc1 [Diphenidol hydrochloride] (20 µM) | 1.03 |
| Cc1ccccc1C(=O)Nc1ccc(C(=O)N2CCCC(O)c3cc(Cl)ccc32)c(C)c1 (centres undefined) [Tolvaptan] (20 µM) | 1.16 |
